The reported measurements were obtained from the supplement of paper PMC10567573.

B1: ZNF277 (parent)
chain: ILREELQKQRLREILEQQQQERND

- Variants of: B1
- test: protein stability index of a GFP-peptide fusion (GPS, HEK-293T) (PSI 1-6); higher = more stable;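 note: lentivirally expressed fusions sorted by FACS into six bins by GFP to DsRed ratio, PSI derived from sequencing read proportions per bin multiplied by bin number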
- assay_setup: c terminus: a fixed tail appended
readout_type: protein stability index

{"columns": ["mutation_key", "readout_type", "experimental_result"],
 "data": [
  ["Q18C", "protein stability index", 3.31],
  ["R12D", "protein stability index", 5.8],
  ["L11Y", "protein stability index", 4.58],
  ["Q18D", "protein stability index", 4.46],
  ["R3S", "protein stability index", 4.96],
  ["E4W", "protein stability index", 3.28],
  ["E21Q", "protein stability index", 3.38],
  ["Q20C", "protein stability index", 4.2],
  ["L11A", "protein stability index", 4.83],
  ["L6Q", "protein stability index", 3.69],
  ["E13L", "protein stability index", 3.75],
  ["L11D", "protein stability index", 4.8],
  ["E13I", "protein stability index", 4.06],
  ["R12L", "protein stability index", 4.36],
  ["E21I", "protein stability index", 2.94],
  ["R10H", "protein stability index", 4.85],
  ["R3Y", "protein stability index", 3.64],
  ["Q9H", "protein stability index", 5.05],
  ["L6K", "protein stability index", 4.96],
  ["R3T", "protein stability index", 4.36],
  ["R3L", "protein stability index", 2.82],
  ["Q9P", "protein stability index", 4.52],
  ["E5I", "protein stability index", 2.94],
  ["K8M", "protein stability index", 4.12],
  ["E13N", "protein stability index", 4.05],
  ["R12Q", "protein stability index", 4.72],
  ["R10T", "protein stability index", 4.59],
  ["R12E", "protein stability index", 5.08],
  ["R22Q", "protein stability index", 4.44],
  ["L11H", "protein stability index", 4.94],
  ["E16S", "protein stability index", 4.04],
  ["E16I", "protein stability index", 3.74],
  ["Q18T", "protein stability index", 3.57],
  ["E13R", "protein stability index", 4.11],
  ["D24Q", "protein stability index", 4.18],
  ["Q7R", "protein stability index", 4.1],
  ["R12C", "protein stability index", 4.45],
  ["E21Y", "protein stability index", 3.73],
  ["N23V", "protein stability index", 3.89],
  ["E21K", "protein stability index", 4.26],
  ["R22A", "protein stability index", 4.4],
  ["Q7F", "protein stability index", 2.93],
  ["L2G", "protein stability index", 5.11],
  ["E5W", "protein stability index", 2.84],
  ["Q7N", "protein stability index", 4.44],
  ["Q20L", "protein stability index", 4.05],
  ["Q20A", "protein stability index", 4.93],
  ["L11E", "protein stability index", 5.06],
  ["R22I", "protein stability index", 3.81],
  ["L15W", "protein stability index", 4.14],
  ["L2Y", "protein stability index", 4.81],
  ["I14C", "protein stability index", 4.13],
  ["I14P", "protein stability index", 5.11],
  ["N23E", "protein stability index", 4.59],
  ["L6P", "protein stability index", 5.5],
  ["Q9Y", "protein stability index", 3.9],
  ["E21A", "protein stability index", 4.39],
  ["L15T", "protein stability index", 4.67],
  ["E5V", "protein stability index", 2.42],
  ["L6H", "protein stability index", 4.59],
  ["Q17I", "protein stability index", 3.33],
  ["I1G", "protein stability index", 4.93],
  ["R3Q", "protein stability index", 4.69],
  ["E5P", "protein stability index", 4.47],
  ["D24K", "protein stability index", 3.83],
  ["R12G", "protein stability index", 5.05],
  ["R22T", "protein stability index", 4.76],
  ["E5K", "protein stability index", 4.51],
  ["L2P", "protein stability index", 4.86],
  ["Q18G", "protein stability index", 4.57],
  ["L2H", "protein stability index", 5.24]
]}
